ASSAY EXPLANATION: Binding affinity to AAC(6')-lb (unknown origin)
METRIC: Kd (µM)
One number for each entry, in µM.

Past entries and their recorded results:
N[C@H]1C[C@H](Oc2ccccc2[N+](=O)[O-])[C@@H](N)C1: 23
N[C@@H]1C[C@H](N)[C@@H](O)C1: 41
CC(C)(COP(=O)(O)OP(=O)(O)OC[C@H]1O[C@@H](n2cnc3c(N)ncnc32)[C@H](O)[C@@H]1OP(=O)(O)O)[C@@H](O)C(=O)NCCC(=O)NCCSCC(=O)NCc1ccc(O[C@H]2C[C@H](N)C[C@@H]2N)cc1: 0.95
Nc1cccc(C(=O)O[C@H]2C[C@H](N)C[C@@H]2N)c1: 57

stdin: Tell me the measured Kd of N#Cc1ccc(O[C@H]2C[C@H](N)C[C@@H]2N)cc1 , please.
stdout: 20

* * *

Listed here: compounds with reported Ki for Aac(6')-Ii protein (Enterococcus faecium, UniProt Q47764).

CC(C)(CO)[C@@H](O)C(=O)NCCC(=O)NCCSCC(=O)NC[C@H]1O[C@H](O[C@H]2[C@H](O)[C@@H](O)[C@H](N)C[C@@H]2N)[C@H](N)[C@@H](O)[C@@H]1O: ≥ 500 µM

Then this compound:
stdin: Tell me the measured Ki of CC(C)(CO)[C@@H](O)C(=O)NCCC(=O)NCCSCCCCC(=O)NC[C@H]1O[C@H](O[C@H]2[C@H](O)[C@@H](O)[C@H](N)C[C@@H]2N)[C@H](N)[C@@H](O)[C@@H]1O , please.
stdout: ≥ 500 µM

* * *

ASSAY EXPLANATION: Activity at AAC(6')-li (unknown origin)
Please provide measured kcat for the entries that follow.
Answers are plain numbers, in s⁻¹.

Past entries and their recorded results:
NC[C@H]1O[C@H](O[C@H]2[C@H](OCC(=O)NCCCCCNC(=O)CO[C@@H]3[C@@H](O)[C@H](N)C[C@H](N)[C@H]3O[C@H]3O[C@H](CN)[C@@H](O)[C@H](O)[C@H]3N)[C@@H](O)[C@H](N)C[C@@H]2N)[C@H](N)[C@@H](O)[C@@H]1O: 1.89
NC[C@H]1O[C@H](O[C@H]2[C@H](OCC(=O)NCCCNC(=O)CO[C@@H]3[C@@H](O)[C@H](N)C[C@H](N)[C@H]3O[C@H]3O[C@H](CN)[C@@H](O)[C@H](O)[C@H]3N)[C@@H](O)[C@H](N)C[C@@H]2N)[C@H](N)[C@@H](O)[C@@H]1O: 0.86
CN(CCCCN(C)C[C@@H](O)CO[C@@H]1[C@@H](O)[C@H](N)C[C@H](N)[C@H]1O[C@H]1O[C@H](CN)[C@@H](O)[C@H](O)[C@H]1N)C[C@@H](O)CO[C@@H]1[C@@H](O)[C@H](N)C[C@H](N)[C@H]1O[C@H]1O[C@H](CN)[C@@H](O)[C@H](O)[C@H]1N: 0.26

Then this compound:
stdin: Tell me the measured kcat of NC[C@H]1O[C@H](O[C@H]2[C@H](O)[C@@H](O)[C@H](N)C[C@@H]2N)[C@H](N)[C@@H](O)[C@@H]1O , please.
stdout: 0.419

* * *

ASSAY EXPLANATION: Activity at AAC(6')-li (unknown origin)
Please provide measured Km for the entries that follow.
Answers are plain numbers, in µM.

NC[C@H]1O[C@H](O[C@H]2[C@H](O)[C@@H](O)[C@H](N)C[C@@H]2N)[C@H](N)[C@@H](O)[C@@H]1O: 5.82
NC[C@H]1O[C@H](O[C@H]2[C@H](OCC(=O)NCCCCCNC(=O)CO[C@@H]3[C@@H](O)[C@H](N)C[C@H](N)[C@H]3O[C@H]3O[C@H](CN)[C@@H](O)[C@H](O)[C@H]3N)[C@@H](O)[C@H](N)C[C@@H]2N)[C@H](N)[C@@H](O)[C@@H]1O: 83.6
CN(CCCCN(C)C[C@@H](O)CO[C@@H]1[C@@H](O)[C@H](N)C[C@H](N)[C@H]1O[C@H]1O[C@H](CN)[C@@H](O)[C@H](O)[C@H]1N)C[C@@H](O)CO[C@@H]1[C@@H](O)[C@H](N)C[C@H](N)[C@H]1O[C@H]1O[C@H](CN)[C@@H](O)[C@H](O)[C@H]1N: 28.7

Then this compound:
stdin: Tell me the measured Km of NC[C@H]1O[C@H](O[C@H]2[C@H](OCC(=O)NCCCNC(=O)CO[C@@H]3[C@@H](O)[C@H](N)C[C@H](N)[C@H]3O[C@H]3O[C@H](CN)[C@@H](O)[C@H](O)[C@H]3N)[C@@H](O)[C@H](N)C[C@@H]2N)[C@H](N)[C@@H](O)[C@@H]1O , please.
stdout: 53.4

Attribution: ChEMBL document CHEMBL3217485
